System: MS2 coat protein
Assay: apparent Kd, MS2 coat protein; higher = weaker binding; RNA-MaP array; FMN 200 µM where present
Settings: designed as: OFF switch for flavin mononucleotide; no ligand
Quantity name: apparent Kd (nM)
Supply the numeric figure in nM, leaving out any unit text.

GGAUAGGACAUAGGAUAUACGUGCUAGAGAUACUAGCAAAAUUUCCUCACAUGAGGAUCACCCAUGUAGAAGGCUGUCCUAUCG: 6.73
UAGCGGUAGGGAGGAUAUGCGAAAGGAAGGCCCGCAGAAGGCCUUACAUGAGGAUCACCCAUGUAGGAUGCCUGGGUGGUGCCC: 14.5
CGCACUGAUAGAGGAUAUGUUUUACAUGAGGAUCACCCAUGUGUACAAGGAUUAAUAUAUAAGUAACAGAAGGCUAUUUGUGCG: 6.55

Request: Returns the measured apparent Kd for the input sequence. Input: AAAUUAAGUGUGAGGAUAUGCUGGUCCUUAGAUCAGCAGAAGGCACAUGAGGAUCACCCAUGUAAUAUAUUUAA
Response: 38.9

Request: Request the reported apparent Kd associated with GAUUAACAUGAGGAUCACCCAUGUGAGGAUAUGGAAUGGCACAUUGUUUGAUUCCCGUCUAGAAGGCACAUCUU
Response: 44.5

Request: // query apparent Kd value for entry UCCAGGUAAGGAUAUGGGCUGGACACCGGGUACGGCCAGCACCAGAAGGUACAUGAGGAUCACCCAUGUGUUCC
Response: 54.5

Request: Item CCACCAAUCGAGAAGGGCCCAUGUGCUACAUCGGCAGGAUAUCGACAUGAGGAUCACCCAUGUUGGCGAUCCUUUUUGGCGGAC has what recorded apparent Kd?
Response: 176

----------
System: MS2 coat protein
Experiment: apparent Kd, MS2 coat protein; higher = weaker binding; RNA-MaP array
Settings: ligand present: flavin mononucleotide; designed as: OFF switch for flavin mononucleotide
Quantity name: apparent Kd (nM)
Provide the reading as a plain figure in nM.

// below: answered sequences
UACCAUAGACCAGUUAGCGACACAUGAGGAUCACCCAUGUAGAGAAGGUGCUCUAUCUUAAGACGCAAGGAUAUCUGCAUUAUA: 21.9
UGUAACACAGGAUAUACAUAGGCCAGCCACUGACUCAGGUCACAUGAGGAUCACCCAUGUAGAAGGGUGCUGAA: 84.1
CAGGAGCUAGAGAAGGAGGUUACGCCCACGGACCUAGGAUAUCUGUUCUGAGUUACAUGAGGAUCACCCAUGUGUCCGCGGUGG: 33
ACCUAAUAAGGAUAUACGAAAGAGCCACCUGUAAACAACCGACAUGAGGAUCACCCAUGUAGAAGGUAUUAGGU: 9.47
UUCGGCCUUUAGAAGGAUUGUAUACAUGAGGAUCACCCAUGUUGGUGAUACAGAUAUAUUCGGCAAUAGGAUAUAAGCAGGUGA: 598

Request: Tell me the measured apparent Kd of ACACAGUCAGGAUAUACACAAAAUCUCAGUCUAGUAAGUAAACAUGAGGAUCACCCAUGUAGAAGGGACUUUAA , please.
Response: 7.79

Request: Given AAAGAACAUGAGGAUCACCCAUGUCAGGAUAUACAAAGACGUAGCAAAGCGGACUCAAGAAGAAGGGACAAGGA , state its recorded apparent Kd.
Response: 10.1
